Data origin: ChEMBL document CHEMBL1157565

assay method text: Cmax in Wistar rat at 1.4 mg/kg, po
Format: ADME, organism-based
Set-up: dose 1.4 mg/kg, route oral
condition details: in vivo
measurement type: Cmax (ng/mL)

1. COc1ccc(NC(=O)Nc2ccc(F)cc2F)cc1-c1c(Br)cnn1C
2. COc1ccc(NC(=O)Nc2ccc(F)cc2)cc1-c1c(Br)cnn1C
Which value of Cmax is greater, the one for 1 or the one for 2 ? Kindly state the label of the option you pick.
2
(2: 85 ng/mL, 1: 44 ng/mL)

* * *

assayed target: 5-hydroxytryptamine receptor 2A (Homo sapiens, UniProt P28223)
Sequence (P28223 whole entry): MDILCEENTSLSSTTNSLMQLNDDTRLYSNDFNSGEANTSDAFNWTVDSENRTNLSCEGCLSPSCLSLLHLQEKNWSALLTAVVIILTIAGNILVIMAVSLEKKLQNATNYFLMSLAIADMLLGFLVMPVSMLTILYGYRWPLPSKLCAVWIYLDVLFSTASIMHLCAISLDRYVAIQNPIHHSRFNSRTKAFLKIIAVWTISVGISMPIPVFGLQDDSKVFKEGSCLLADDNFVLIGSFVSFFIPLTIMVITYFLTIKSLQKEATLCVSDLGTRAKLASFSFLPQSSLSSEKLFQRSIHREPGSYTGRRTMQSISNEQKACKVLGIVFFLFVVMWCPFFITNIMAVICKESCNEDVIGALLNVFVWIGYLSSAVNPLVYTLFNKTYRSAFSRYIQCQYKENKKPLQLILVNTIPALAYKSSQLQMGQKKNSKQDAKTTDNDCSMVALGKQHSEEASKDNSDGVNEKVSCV
assay method text: Displacement of [3H]DOI from human recombinant 5HT2A receptor expressed in HEK293 cells by scintillation counting
Assay type: cell-based
condition details: in the assay text read “[125I]DOI” for “[3H]DOI”
pKi: −log10 of the molar value.
measurement type: pKi

Take a look at these entries with their results.
compound structure string	assayed target	pKi
COc1ccc(NC(=O)Nc2ccc(F)cc2)cc1-c1c(Br)cnn1C(C)C	5-hydroxytryptamine receptor 2A (Homo sapiens, UniProt P28223)	9.60
COc1ccc(NC(=O)Nc2ccc(Cl)cc2Cl)cc1-c1c(Br)cnn1C	5-hydroxytryptamine receptor 2A (Homo sapiens, UniProt P28223)	9.70
COc1ccc(NC(=O)Nc2cccc(C(C)=O)c2)cc1-c1c(Br)cnn1C	5-hydroxytryptamine receptor 2A (Homo sapiens, UniProt P28223)	8.60
COc1ccc(NC(=O)Nc2cc(C(F)(F)F)cc(C(F)(F)F)c2)cc1-c1c(Cl)cnn1C	5-hydroxytryptamine receptor 2A (Homo sapiens, UniProt P28223)	9.00
Cn1ncc(Br)c1-c1cc(NC(=O)Nc2ccc(Cl)cc2)ccc1OCc1ccccc1	5-hydroxytryptamine receptor 2A (Homo sapiens, UniProt P28223)	8.30
COc1ccc(NC(=O)Nc2ccc(F)c(F)c2)cc1-c1c(F)cnn1C	5-hydroxytryptamine receptor 2A (Homo sapiens, UniProt P28223)	8.90

a. COc1ccc(NC(=O)Nc2cccc(Cl)c2)cc1-c1c(Br)cnn1C
b. COc1ccc(NC(=O)Nc2ccc(Cl)cc2)cc1-c1c(Br)cnn1C
c. Cn1ncc(Br)c1-c1cc(NC(=O)Nc2ccc(Cl)cc2)ccc1OC(F)(F)F
Ascending sort, pKi. Rank them, then answer with their labels in that order.
c, b, a

P. CCOc1ccc(NC(=O)Nc2ccc(Cl)cc2)cc1-c1c(Br)cnn1C
Q. COc1ccc(NC(=O)Nc2cccc(C#N)c2)cc1-c1c(Br)cnn1C
Lab note: check whether P or Q has the lower measured pKi. To answer, give the label that identifies your chosen option.
Q
(Q: 9.30, P: 9.60)

1. COc1ccc(NC(=O)Nc2ccc(Br)cc2)cc1-c1c(Br)cnn1C
2. COc1ccc(NC(=O)Nc2ccccc2F)cc1-c1c(Br)cnn1C
3. COc1ccc(NC(=O)Nc2ccc(Cl)cc2)cc1-c1c(Cl)cnn1C
Please order the records by their reported pKi, lowest number first. Order the labels as requested and give them as your answer.
2, 1, 3

a. COc1ccc(NC(=O)Nc2ccc(F)cc2)cc1-c1c(Br)cnn1C
b. COc1ccc(NC(=O)Nc2ccc(OC)c(-c3c(Br)cnn3C)c2)cc1
c. COc1ccc(NC(=O)Nc2ccc(N(C)C)cc2)cc1-c1c(Br)cnn1C
d. Cn1ncc(Br)c1-c1cc(NC(=O)Nc2ccc(Cl)cc2)ccc1OCc1ccc(Cl)cc1
Rank the items in ascending order with respect to pKi. The reply should contain the labels ordered as requested.
d, c, b, a
(d: 7.70, c: 8.80, b: 9.30, a: 9.60)
